# EXPERIMENTAL_SYSTEM: T1, Human CD137 ECD (human)
# T1 construct: entry includes C-terminal His-tag and biotin acceptor peptide; also called human CD137 extracellular domain; 4-1BB
# T1 sequence (chain, as listed by the source limits assumed): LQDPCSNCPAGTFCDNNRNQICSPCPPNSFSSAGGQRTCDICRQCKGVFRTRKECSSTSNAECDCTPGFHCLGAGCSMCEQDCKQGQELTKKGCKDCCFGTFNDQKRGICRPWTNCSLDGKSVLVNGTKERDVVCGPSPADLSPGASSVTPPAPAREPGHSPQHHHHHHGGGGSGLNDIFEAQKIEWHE
# TEST: Biacore SPR, vs parent H183/L072
Attribute: fold change of affinity

BINDER	fold change of affinity [fold]
H183/L072 VL L27bS (antibody, name in Kabat numbering, V domains shown, Dual-Ig) VH: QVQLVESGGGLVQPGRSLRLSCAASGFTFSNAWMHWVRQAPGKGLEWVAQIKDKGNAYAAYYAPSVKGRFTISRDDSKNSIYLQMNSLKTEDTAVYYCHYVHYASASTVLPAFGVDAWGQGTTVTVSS VL: DIVMTQSPLSLPVTPGEPASISCQASQESVHMNRNTYLHWYQQKPGQAPRLLIYKVSNRFPGVPDRFSGSGSGTDFTLKISRVEAEDVGVYYCAQGTSVPFTFGQGTKLEIK	0.3
H183/L072 VL N28Q (antibody, name in Kabat numbering, V domains shown, Dual-Ig) VH: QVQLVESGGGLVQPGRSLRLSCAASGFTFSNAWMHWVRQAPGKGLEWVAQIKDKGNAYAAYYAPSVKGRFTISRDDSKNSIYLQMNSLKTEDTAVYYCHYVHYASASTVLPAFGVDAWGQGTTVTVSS VL: DIVMTQSPLSLPVTPGEPASISCQASQELVHMQRNTYLHWYQQKPGQAPRLLIYKVSNRFPGVPDRFSGSGSGTDFTLKISRVEAEDVGVYYCAQGTSVPFTFGQGTKLEIK	0.4
H183/L072 VL T97F (antibody, name in Kabat numbering, V domains shown, Dual-Ig) VH: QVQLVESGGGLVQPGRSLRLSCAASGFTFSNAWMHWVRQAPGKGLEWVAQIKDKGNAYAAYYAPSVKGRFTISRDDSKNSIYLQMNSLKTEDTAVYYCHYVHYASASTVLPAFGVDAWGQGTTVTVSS VL: DIVMTQSPLSLPVTPGEPASISCQASQELVHMNRNTYLHWYQQKPGQAPRLLIYKVSNRFPGVPDRFSGSGSGTDFTLKISRVEAEDVGVYYCAQGTSVPFFFGQGTKLEIK	0.3
H183/L072 VL S52L (antibody, name in Kabat numbering, V domains shown, Dual-Ig) VH: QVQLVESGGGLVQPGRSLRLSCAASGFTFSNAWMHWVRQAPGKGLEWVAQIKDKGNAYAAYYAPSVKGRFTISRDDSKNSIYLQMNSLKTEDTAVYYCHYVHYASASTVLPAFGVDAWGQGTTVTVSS VL: DIVMTQSPLSLPVTPGEPASISCQASQELVHMNRNTYLHWYQQKPGQAPRLLIYKVLNRFPGVPDRFSGSGSGTDFTLKISRVEAEDVGVYYCAQGTSVPFTFGQGTKLEIK	1.2
H183/L072 VL V94G (antibody, name in Kabat numbering, V domains shown, Dual-Ig) VH: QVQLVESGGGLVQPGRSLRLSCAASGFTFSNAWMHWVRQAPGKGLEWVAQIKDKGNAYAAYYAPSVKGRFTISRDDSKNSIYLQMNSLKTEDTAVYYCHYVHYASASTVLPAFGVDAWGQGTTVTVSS VL: DIVMTQSPLSLPVTPGEPASISCQASQELVHMNRNTYLHWYQQKPGQAPRLLIYKVSNRFPGVPDRFSGSGSGTDFTLKISRVEAEDVGVYYCAQGTSGPFTFGQGTKLEIK	0

Recorded values, source patent US20210388087A1.
